- study.target: biotin labeled PDGF-BB (R&D Systems) (UniProt P01127)
- measurement.notes: competitive ELISA: biotin PDGF-BB pre-incubated with conjugate at 1 mg/mL, added to plate-coated PDGF-Rβ Fc; A450 against reference Compound 1 (higher = less inhibition)
No end group written: not given here.
Measured ratio Absorbance 450 conjugate/Absorbance 450 reference, listed per entry for reference.
// no unit, no text: just the number

Worked cases, answers included:
GQLYKSILYGSGSGSRR (not fully specified (C-terminus); also: several peptides per HA backbone, peptide load 30) [HA108 backbone HA, 30PM]
14.2
GQLYKSILYGSGSGSRR (not fully specified (C-terminus); also: several peptides per HA backbone, peptide load 50) [HA108 backbone HA, 50PM]
9.31
GQLYKSILYGSGSGSRR (not fully specified (C-terminus); also: several peptides per HA backbone, peptide load 10) [HA108 backbone HA, 10PM]
17

# next binder below
Using the record for GQLYKSILYGSGSGSRR (not fully specified (C-terminus); also: several peptides per HA backbone, peptide load 20) [HA108 backbone HA, 20PM] , report its ratio Absorbance 450 conjugate/Absorbance 450 reference.
16.3
